ASSAY_PROCEDURE: Saturation mutagenesis of SEQ ID NO:109: dicamba decarboxylation activity of point mutants (CO2 released), fold of backbone (Tables 7, 8, Megatable 1)
TEST_CONTEXT: decarboxylation activity (CO2 released) of point mutant vs unmutated backbone protein; backbone SEQ ID NO: 109
MEASUREMENT_KIND: Fold Activity (fold)
Field: numeric (fold). Do not append units.

Input: Which measured Fold Activity value corresponds to 78 (protein, listed as Marinobacter adhaerens) MALIDLHAHAPHPDYYDQHPHWGPAFELQSDGDIKLRVGHWVLSLGAPERKQALREAHARGETLDVQEYMAKWRDPEHRLASMDAAGQNAQVLSVPSHCYMYWAEPEFGVPFAKKVNDSLAEYCSAAPDRLMFWAHAPLNVPKEAAKEIRRACTELGAKGLVAGGSNFGGLEFDSPEMDPVWEALCDLDLPMFVHGYNQSVTWGEEANTDRYETTAIVGMNYDESKCFWYMINGGVFDRFPNLKVYITHGGGFVPYQLGRMAQTNPNLDTYHNKKPFLEYLKNFYFDVELHEVPMRQAMVEVIGADRVLYGSNFGGSDAVRHDLTDDLKLSQEDLDKIRWKNACDLLHLDPNKLGKVRG ?
Output: 1.1
